molecular target: Beta-lactamase (Escherichia coli K-12); assay: Inhibition of Escherichia coli AmpC beta lactamase using relaxed assay conditions in presence of 0.00001% Triton X-100 detergent
pIC50: −log10 of the molar value.
READOUT_LABEL: pIC50

These solved cases illustrate the format of a correct answer.
TEST_SMILES	pIC50
Fc1c(F)c(F)c(CSc2nc3ccccc3[nH]2)c(F)c1F	3.89
O=c1[nH]c2cc(Cl)ccc2c(O)c1-c1cccc(Oc2ccccc2)c1	4.66
Cc1cccc(OCC(=O)Nc2cccc(-c3nnc(-c4ccccc4)o3)c2)c1C	4.89

(1) COc1c(F)c(F)c(C(=O)Nc2ccc(NC(=O)c3ccco3)cc2)c(F)c1F
(2) O=C(Nc1cccc2ccccc12)c1ccc(Br)o1
INPUT: Could you tell me which of 1 and 2 has the lower pIC50 reading? Provide the label of your selected option as the answer.
OUTPUT: 2

---

biological target: Beta-lactamase (Escherichia coli K-12, UniProt P00811); assay: Inhibition of Escherichia coli AmpC beta lactamase using relaxed assay conditions in presence of 0.00001% Triton X-100 detergent
Sequence (P00811 whole entry): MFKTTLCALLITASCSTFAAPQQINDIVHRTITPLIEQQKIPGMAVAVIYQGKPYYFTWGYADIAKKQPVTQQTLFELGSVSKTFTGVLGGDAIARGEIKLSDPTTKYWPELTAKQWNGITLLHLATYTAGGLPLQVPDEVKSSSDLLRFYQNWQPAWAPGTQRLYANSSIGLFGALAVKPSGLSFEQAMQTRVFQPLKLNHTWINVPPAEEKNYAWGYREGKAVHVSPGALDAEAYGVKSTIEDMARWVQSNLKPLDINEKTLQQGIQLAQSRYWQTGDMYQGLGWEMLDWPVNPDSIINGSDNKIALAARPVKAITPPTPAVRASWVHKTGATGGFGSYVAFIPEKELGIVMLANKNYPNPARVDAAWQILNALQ
READOUT_LABEL: IC50 (µM)

These solved cases illustrate the format of a correct answer.
MOLECULE	RESULT_NUMBER
Clc1ccc(CSC(Cn2ccnc2)c2ccc(Cl)cc2Cl)cc1 (centres undefined) [SULCONAZOLE]	20
Cc1cc2c(C(C)C)c(O)c(O)c(C=O)c2c(O)c1-c1c(C)cc2c(C(C)C)c(O)c(O)c(C=O)c2c1O [GOSSYPOL]	46

(1) Clc1ccccc1C(c1ccccc1)(c1ccccc1)n1ccnc1 [CLOTRIMAZOLE]
(2) O=C(Nc1ccc(Oc2ccc(NC(=O)c3ccco3)c(NC(=O)c3ccco3)c2)cc1)c1ccco1
INPUT: Could you tell me which of 1 and 2 has the lower IC50 reading? Provide the label of your selected option as the answer.
OUTPUT: 2

---

pIC50: −log10 of the molar value.
Target or system Beta-lactamase (Escherichia coli K-12, UniProt P00811); recorded quantity pIC50.

These solved cases illustrate the format of a correct answer.
TEST_SMILES	RESULT
Cc1cccc(OCC(=O)Nc2cccc(-c3nnc(-c4ccccc4)o3)c2)c1C	< 4.18
COc1c(F)c(F)c(C(=O)Nc2ccc(NC(=O)c3ccco3)cc2)c(F)c1F	< 4.18
Cc1ccc2nc(-c3ccccc3)cc(O)c2c1	< 4.00
O=C(Nc1cccc2ccccc12)c1ccc(Br)o1	< 3.70

INPUT: Which pIC50 value is on record for Fc1c(F)c(F)c(CSc2nc3ccccc3[nH]2)c(F)c1F ?
OUTPUT: < 3.52
